Tested Target: T1, human EpCAM extracellular domain with C-terminal His tag (Novoprotein #C339) (human, UniProt P16422 24-265)
T1 construct: extracellular domain; Bought protein
T1 sequence (looked up): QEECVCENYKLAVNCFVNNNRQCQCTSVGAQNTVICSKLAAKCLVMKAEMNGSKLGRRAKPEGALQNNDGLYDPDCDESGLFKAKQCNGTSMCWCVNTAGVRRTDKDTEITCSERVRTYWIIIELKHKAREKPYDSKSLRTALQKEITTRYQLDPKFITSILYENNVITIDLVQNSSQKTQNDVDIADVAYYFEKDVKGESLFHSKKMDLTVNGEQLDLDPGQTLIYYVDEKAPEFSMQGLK
Protocol Details: ELISA on human EpCAM
Measurement Label: binding result

>>> result("mAb-36 (chimeric anti-EpCAM antibody) (antibody, V domains shown) VH: QVQVQQSGPELVKPGTSVKISCKTSGYTFTDYYITWVKQRPGQGLEWIGWIFPGRGISFYNENFKDKATLTVDKSSNTAFMLLSSLTSEDSAVYFCARWGGTWFAYWGQGTLITVSA VL: EIVLTQSPAITAAFLGQKVTITCSASSSVSYIHWYQQKSDTSPKPWIYEISKLASGVPARFSGSGSGTSYSLTISSMEAEDAAIYYCQQWNYPLITFGGGTKLEIK")
"binds"
>>> result("mAb-28 (chimeric anti-EpCAM antibody) (antibody, V domains shown) VH: QVQLQQSGAELARPGASVKVSCKASGYTFTSYGISWVKQRTGQGLEWIGEIYPTRDYTYYNENFKGKATLTADKSSTTAYMELRSLTSEDSAVYFCARDGPPFAYWGQGTLVTVSA VL: DIVMTQAAFSNPVTLGTSASISCRSSKSLLHSNGFTYLHWYLQKPGQSPQLLIYQMSSLASGVPDRFSSSGSGTDFTLRISRVEAEDVGVYYCAQNLELPRTFGGGTKLEIK")
"binds"
